Origin of values: paper PMC8198714

# SUBJECT_OF_TEST: human recombinant AChE (hAChE) (Homo sapiens)
# Construct: purchased Sigma-Aldrich, Merck group, Milan, Italy
# MEASUREMENT_NOTES: Inhibition of human AChE, Ellman's method
# Type: biochemical
# CONDITION_INFO: human recombinant AChE; incubation 20 min; read-out: IC50 hAChE
MEASURED_ENDPOINT: IC50
Provide a numeric answer, followed by its unit.

Request: Give the measured IC50 of CN(CCCOc1ccc2ccc(=O)oc2c1)Cc1cccc(OCC(=O)NC2CCCC2)c1 .
Result: 59.4 µM

----------
# SUBJECT_OF_TEST: human recombinant AChE (hAChE) (Homo sapiens, UniProt P22303)
# Construct: purchased Sigma-Aldrich, Merck group, Milan, Italy
# Sequence (P22303 32-614): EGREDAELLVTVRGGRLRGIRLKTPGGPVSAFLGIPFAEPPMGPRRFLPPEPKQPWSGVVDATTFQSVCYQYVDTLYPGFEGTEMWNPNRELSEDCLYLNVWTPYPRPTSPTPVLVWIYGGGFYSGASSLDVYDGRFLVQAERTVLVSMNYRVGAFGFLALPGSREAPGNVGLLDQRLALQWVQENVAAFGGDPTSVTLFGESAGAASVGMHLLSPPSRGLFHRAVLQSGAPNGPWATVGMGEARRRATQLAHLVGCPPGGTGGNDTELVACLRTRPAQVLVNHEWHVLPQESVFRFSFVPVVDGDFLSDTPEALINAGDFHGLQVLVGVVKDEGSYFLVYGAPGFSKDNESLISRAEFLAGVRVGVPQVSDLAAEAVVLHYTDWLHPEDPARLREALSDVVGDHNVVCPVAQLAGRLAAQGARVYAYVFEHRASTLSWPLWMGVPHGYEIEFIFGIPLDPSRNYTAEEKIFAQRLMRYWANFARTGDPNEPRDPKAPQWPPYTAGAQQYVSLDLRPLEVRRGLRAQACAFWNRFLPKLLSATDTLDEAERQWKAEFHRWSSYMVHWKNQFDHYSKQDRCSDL
# MEASUREMENT_NOTES: Inhibition of human AChE, Ellman's method
# Format: biochemical
# CONDITION_INFO: human recombinant AChE; incubation time 90 min; read-out: IC50 hAChE (±SEM)
MEASURED_ENDPOINT: IC50 (nM)
Express the result in nM but write the number alone.

Request: Give the measured IC50 of CN(CCCOc1ccc2ccc(=O)oc2c1)Cc1cccc(OC(=O)NC2CCCCC2)c1 .
Result: 104

----------
# SUBJECT_OF_TEST: BuChE from human serum (hBuChE) (Homo sapiens)
# Construct: commercial stock solution of BuChE from human serum (Sigma); purchased Sigma; host or cells: human serum
# Sequence (P06276 29-602): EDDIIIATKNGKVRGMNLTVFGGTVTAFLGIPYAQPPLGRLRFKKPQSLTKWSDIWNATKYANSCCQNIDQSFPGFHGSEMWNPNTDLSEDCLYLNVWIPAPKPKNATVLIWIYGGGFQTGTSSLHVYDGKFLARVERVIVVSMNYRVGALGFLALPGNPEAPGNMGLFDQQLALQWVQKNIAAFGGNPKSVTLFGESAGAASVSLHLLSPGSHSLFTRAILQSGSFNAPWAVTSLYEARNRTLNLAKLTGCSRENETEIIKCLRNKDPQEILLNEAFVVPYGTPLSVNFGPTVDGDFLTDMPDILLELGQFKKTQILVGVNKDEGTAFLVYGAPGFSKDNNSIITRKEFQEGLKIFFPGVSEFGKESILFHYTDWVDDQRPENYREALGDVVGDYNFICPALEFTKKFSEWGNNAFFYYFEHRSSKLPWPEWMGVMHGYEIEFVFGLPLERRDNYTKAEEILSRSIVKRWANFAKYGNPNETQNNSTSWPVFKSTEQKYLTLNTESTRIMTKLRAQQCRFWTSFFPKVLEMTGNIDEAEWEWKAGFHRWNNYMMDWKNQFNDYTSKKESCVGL
# MEASUREMENT_NOTES: Inhibition of human BuChE, Ellman's method
# Assay type: biochemical
# CONDITION_INFO: BuChE from human serum; incubation time 60 min; read-out: IC50 hBuChE (±SEM)
# Description: The capacity of 2–7 to inhibit human ChE activity was assessed using the Ellman’s method. […] Incubation times were: 60 min for 2 and 90 min for 3 and 4 on hAChE assay, and 45 min for 2 and 60 min for 3 and 4 on hBuChE assay, as assessed on the preliminary determination of the carbamoylation rate. […] The reaction rates obtained in the absence and presence of inhibitor were compared and the percent inhibition due to the presence of inhibitor was calculated. […]
MEASURED_ENDPOINT: IC50 (nM)
Express the result in nM but write the number alone.

{"STRUCTURE_NOTATION": "CN(CCCOc1ccc2ccc(=O)oc2c1)Cc1cccc(OC(=O)Nc2ccc3ccccc3c2)c1", "MEASURED_ENDPOINT": "IC50", "UNITS_TEXT": "nM", "RECORDED_MEASUREMENT": 2}

Now consider a different molecule.
Request: // map CN(CCCOc1ccc2ccc(=O)oc2c1)Cc1cccc(OC(=O)NC2CCCCC2)c1 to recorded IC50 (system: BuChE from human serum (hBuChE) (Homo sapiens))
Result: 34.9

----------
# SUBJECT_OF_TEST: Aβ42 self-aggregation (Homo sapiens, UniProt P05067)
# Construct: pretreated Aβ42 samples (Bachem AG, Bubendorf, Switzerland); purchased Bachem AG, Bubendorf, Switzerland
# Sequence (P05067 672-713 limits assumed): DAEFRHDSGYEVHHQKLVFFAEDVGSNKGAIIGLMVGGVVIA
# MEASUREMENT_NOTES: Inhibition of Aβ42 self-aggregation, thioflavin T fluorescence
# Format: biochemical
# CONDITION_INFO: read-out: % Inhibition Aβ42 self-aggregation (±SEM)
MEASURED_ENDPOINT: inhibition at 50 µM (%)
Express the result in % but write the number alone.

Worked examples, 4 compounds total:
{"STRUCTURE_NOTATION": "CN(CCCOc1ccc2ccc(=O)oc2c1)Cc1cccc(OC(=O)NC2CCCCC2)c1", "inhibition at 50 µM, %": 18.9}
{"STRUCTURE_NOTATION": "CN(CCCOc1ccc2ccc(=O)oc2c1)Cc1cccc(OC(=O)Nc2ccc3ccccc3c2)c1", "inhibition at 50 µM, %": 13.9}
{"STRUCTURE_NOTATION": "CN(CCCOc1ccc2ccc(=O)oc2c1)Cc1cccc(OC(=O)NC2CCCC2)c1", "inhibition at 50 µM, %": 22.9}
{"STRUCTURE_NOTATION": "CN(CCCOc1ccc2ccc(=O)oc2c1)Cc1cccc(OCC(=O)NC2CCCCC2)c1", "inhibition at 50 µM, %": 13.5}

Now consider a different compound.
Request: // map CN(CCCOc1ccc2ccc(=O)oc2c1)Cc1cccc(OCC(=O)NC2CCCC2)c1 to recorded inhibition at 50 µM (system: Aβ42 self-aggregation (Homo sapiens, UniProt P05067))
Result: 20.3
